Origin of values: the supplement of paper PMC7125110

B1: glmS ribozyme (parent)
chain: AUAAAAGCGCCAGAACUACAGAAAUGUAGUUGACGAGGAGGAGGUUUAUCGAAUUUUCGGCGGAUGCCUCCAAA

variants of: B1; experiment: self-cleavage kobs at 10000 uM GlcN6P; higher = faster cleavage; RNA array; details: with glucosamine-6-phosphate
Variants at the floor of the assay were thinned out.
Catalogue of self-cleavage kobs at 10000 uM GlcN6P values

Take a look at these entries with their results.
> print(dat)
                           ordered.residues  reported.measurement
1  AUAAAAGCGCCUUAACUACAGAAAUGUAGUCGACGAGGAAGAGAUUUAUCGAAUUAUCGGCGGAUGCCUCCAAA           < 1e-05 s⁻¹
2  AUAAAAGCGCCAGACCUACAGAAAUGUACUUGACGAGGAGGAGGUUUAUCGAAUUUUCGUCGGAUGCCUCCAAA           < 1e-05 s⁻¹
3  AUAAAACCGCCAGAACUACAGAAAUGUAGUUGACGAGGAGGAGGUUCAUCGAAUUUUCGGCGGUUGCCUCCAAA           < 1e-05 s⁻¹
4  AUAAAAGCGUCAAAACUACAGAAAUGUAGUUGACGAGGAGGAGGUUUAUCGAAUUUUCGGCGGAUGACUCCAAA           < 1e-05 s⁻¹

--- query ---
## Task What value of measured self-cleavage kobs at 10000 uM GlcN6P is listed for "AUAAAAGCGCCAGAACUACAGAAAUGUAGUUGACGAGGAGGAGGUGUAUCGAAUUUUCGCCGGUUGCCUCCAAA" ?
## Result < 1e-05 s⁻¹
